molecular target: Cytochrome P450 2C9 (Homo sapiens) (UniProt P11712); assay: Cytochrome panel assay with activity outcomes; settings: recombinant CYP, pro-luciferin dealkylation, luminescence, p450-cyp2c9; series mostly up to 57.1 µM
Sequence (P11712 whole entry, looked up): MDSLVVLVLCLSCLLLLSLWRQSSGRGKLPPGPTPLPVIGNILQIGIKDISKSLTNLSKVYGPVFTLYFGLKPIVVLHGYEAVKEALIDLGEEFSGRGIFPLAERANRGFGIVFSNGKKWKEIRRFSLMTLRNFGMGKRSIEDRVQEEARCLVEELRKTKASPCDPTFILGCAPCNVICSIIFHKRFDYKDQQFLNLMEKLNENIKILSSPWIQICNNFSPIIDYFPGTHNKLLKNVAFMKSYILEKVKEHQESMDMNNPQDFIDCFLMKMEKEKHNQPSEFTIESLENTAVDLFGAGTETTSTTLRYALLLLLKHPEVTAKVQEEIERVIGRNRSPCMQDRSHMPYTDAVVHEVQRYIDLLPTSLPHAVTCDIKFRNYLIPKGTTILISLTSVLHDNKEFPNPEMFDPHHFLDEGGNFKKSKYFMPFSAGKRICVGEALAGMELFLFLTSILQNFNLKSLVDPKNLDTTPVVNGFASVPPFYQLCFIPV
About 4,000 (25%) of roughly 16,000 compounds were called active. Roughly 26% stayed inconclusive and do not appear here. Calls come from the whole dose curve; as a rule, active = well fitted curve in the direction sought with a large enough effect; inconclusive = small, poorly fitted or top-dose-only effect, or effect the other way; inactive = no such curve, though single readings can be large or run the other way. Only a sample is shown.
// classify into active, inactive

Could you check what this test reported for O=C(c1ccco1)N1CCC[C@@]2(CCN(c3cccc(-c4ccccc4)c3)C2)C1 ?
active

Could you check what this test reported for O=C(c1ccco1)N1CCC[C@@]2(CCN(c3ccccc3)C2)C1 ?
inactive

Could you check what this test reported for O=C(c1cnccn1)N1CCC2(CC1)CN(c1ccccc1)C2 ?
inactive

Could you check what this test reported for Nc1cc(Cl)nc(N/N=C/c2ccccc2[N+](=O)[O-])n1 ?
inactive

Could you check what this test reported for Cc1cc(C(C)(C)C)cc(C)c1CC1=NCCN1 ?
inactive

Could you check what this test reported for CC(C)CN(Cc1c(O)ccc2c3c(c(=O)oc12)CCC3)CC(C)C ?
active

Could you check what this test reported for COc1cccc(Cn2c(=O)cnc3cncnc32)c1 ?
active

Could you check what this test reported for COCCNC(=O)CCn1c(=O)oc2ccccc21 ?
inactive

Could you check what this test reported for CCOC(=O)N1CCN(c2nc(-c3ccco3)cc(C(F)(F)F)n2)CC1 ?
active

Could you check what this test reported for O=C(c1cnccn1)N1CCC[C@@]2(CCN(c3ccccn3)C2)C1 ?
inactive

Could you check what this test reported for Cc1ccc(/C=C/C(=O)N2CC(C)CC(C)C2)o1 (stereo not drawn) ?
active

Could you check what this test reported for Fc1ccc(CSc2nnc(-c3cc4c(s3)-c3ccccc3CC4)o2)cc1 ?
active

Could you check what this test reported for Cc1nc2cnc(N3CCN(C)CC3)nc2n(Cc2cccs2)c1=O ?
inactive

Could you check what this test reported for O=C(c1cnccn1)N1CCC2(CCCN(c3cccc(-c4ccccc4)c3)C2)CC1 ?
active

Could you check what this test reported for CC1CCN(C(NC(=O)c2ccco2)C(=O)c2ccccc2)CC1 (stereo not drawn) ?
active

Could you check what this test reported for CCNc1ncc2nc(-c3ccc(OC)cc3)c(=O)n(Cc3cccc(OC)c3)c2n1 ?
inactive

Could you check what this test reported for COc1ccc(-n2c(=O)c(CCc3ccccc3)nc3cnc(N4CCN(C)CC4)nc32)cc1 ?
inactive

Could you check what this test reported for CCOC(=O)N1CCN(c2nc(-c3cccs3)cc(C(F)(F)F)n2)CC1 ?
active

Could you check what this test reported for O=C(c1cnccn1)N1CCC[C@@]2(CCN(c3cccc(-c4ccccc4)c3)C2)C1 ?
active

Could you check what this test reported for COc1ccc(N2CCN(C(=S)Nc3cc(C)cc(C)c3)CC2)cc1 ?
inactive

Could you check what this test reported for N[C@H](C(=O)O)[C@@H]1C[C@@H]1C(=O)O ?
inactive

Could you check what this test reported for CCOC(=O)c1cn(-c2nc(-c3ccc(Cl)cc3)cs2)c2c(F)c(N3CC(C)OC(C)C3)c(F)cc2c1=O (stereo not drawn) ?
inactive

Could you check what this test reported for CN1CCN(c2ncc3nc(-c4ccccc4)c(=O)n(Cc4cccs4)c3n2)CC1 ?
inactive

Could you check what this test reported for Cc1ccc(C(=O)N2CCN(c3ccc(C(F)(F)F)cn3)CC2)cc1 ?
active

Could you check what this test reported for N[C@H](CCC(=O)N[C@H](CSN=O)C(=O)NCC(=O)O)C(=O)O ?
active

Could you check what this test reported for Cc1cc(C)nc(SCC(=O)N/N=C\c2sccc2C)n1 ?
inactive

Could you check what this test reported for O=C(c1cnccn1)N1CCC[C@@]2(CCN(c3ccncc3)C2)C1 ?
inactive

Could you check what this test reported for CCOC(=O)c1cnn(-c2nc(-c3cccc(F)c3)cs2)c1C(F)(F)F ?
active

Could you check what this test reported for N[C@H](CCC(=O)NCC(=O)O)C(=O)O ?
inactive

Could you check what this test reported for C=CC(=O)NC(NC(=O)C=C)c1ccc(Br)cc1 ?
inactive

Could you check what this test reported for Cc1ccc(-n2c(N)c(C(=O)NCc3ccco3)sc2=S)cc1 ?
active

Could you check what this test reported for COc1ccc(S(=O)(=O)N2CCC(N3CCCCC3)CC2)cc1 ?
inactive

Could you check what this test reported for OCCN1CCN(CCC=C2c3ccccc3Sc3ccc(Cl)cc32)CC1 ?
inactive

Could you check what this test reported for CC1(C)CC(=O)c2c(Cc3ccccc3)n[nH]c2C1 ?
active

Could you check what this test reported for O=C(Nc1ccc(C(=O)Nc2ccc(C(=O)Nc3ccc(S(=O)(=O)O)c4cc(S(=O)(=O)O)cc(S(=O)(=O)O)c34)cc2)cc1)Nc1ccc(C(=O)Nc2ccc(C(=O)Nc3ccc(S(=O)(=O)O)c4cc(S(=O)(=O)O)cc(S(=O)(=O)O)c34)cc2)cc1 ?
inactive

Could you check what this test reported for COc1cccc(Cn2c(=O)c(CCc3ccccc3)nc3cnc(N4CCN(C)CC4)nc32)c1 ?
active

Could you check what this test reported for O=[N+]([O-])c1ccccc1N/N=C/c1c[nH]c2ccccc12 ?
active

Could you check what this test reported for Cc1ccc(C)c(C(=O)CN2C(=O)c3ccccc3S2(=O)=O)c1 ?
inactive

Could you check what this test reported for COc1ccc(Nc2ncc(C(=O)N3CCN(c4ccc(F)cc4)CC3)c3ccccc23)cc1 ?
active

Could you check what this test reported for CCNc1ncc2nc(C)c(=O)n(Cc3cccc(OC)c3)c2n1 ?
active

Could you check what this test reported for Cc1ccc(NC(=O)Nc2ncccc2C)cc1 ?
active

Could you check what this test reported for O=C(c1cc(C(F)(F)F)cc(C(F)(F)F)c1)N1CCC2(CC1)CN(c1ccccn1)C2 ?
inactive

Could you check what this test reported for CCc1ccc(C(=O)N2CCC(c3nc4ccccc4s3)CC2)cc1 ?
active

----------
molecular target: Cytochrome P450 2C9 (Homo sapiens); assay: Cytochrome panel assay with activity outcomes; settings: recombinant CYP, pro-luciferin dealkylation, luminescence, p450-cyp2c9; series mostly up to 57.1 µM; for activity, negative = inhibition: % is set by controls: 0 for no effect and ±100 for the full control effect
In all, about 16,000 compounds went through this assay and about 4,000 (25%) were called active. Another 26% or so got no clear call; they are omitted. Only a sample is shown.
MEASUREMENT_NAME: activity, negative = inhibition

For reference, reported activity, negative = inhibition for Cc1ccc(C)c(C(=N)c2ccccc2Cc2ccccc2)c1 stands at -26.1% [at 11.4 µM] (inactive)

For reference, reported activity, negative = inhibition for O=C1OCCC=C1[C@@H](O)CCc1ccccc1 stands at 5.4% [at 11.4 µM] (inactive)

For reference, reported activity, negative = inhibition for O=C1C2=CC[C@H]3C(=O)N(c4cccc(Oc5ccccc5)c4)C(=O)[C@@H]3[C@@H]2[C@H](O)[C@@H]2O[C@H]12 stands at 4.88% [at 11.4 µM] (inactive)

For reference, reported activity, negative = inhibition for COc1cccc(-c2nc(NCc3cccs3)c3ccccc3n2)c1 stands at -29.3% [at 2.29 µM] (inactive)

For reference, reported activity, negative = inhibition for CC1=NNC(=S)NCCCN2CCN(CCCNC(=S)NN=C(C)C=NNC(=S)NCCCN3CCN(CCCNC(=S)NN=C1)CC3)CC2 stands at 5.77% [at 11.4 µM] (inactive)

For reference, reported activity, negative = inhibition for CCOC(=O)C1=C(C)NC(=O)N[C@@H]1c1coc2cc(C)cc(C)c2c1=O stands at -14.5% [at 11.4 µM] (inactive)

For reference, reported activity, negative = inhibition for CC1(C)O[C@H]2[C@@H](O1)[C@@H](On1nnc3ccc(Cl)cc31)O[C@@H]2[C@@H]1COC(C)(C)O1 stands at -3.36% [at 11.4 µM] (inactive)

For reference, reported activity, negative = inhibition for CN(C)Cc1ccccc1-c1ccc2ncnc(N(C)C)c2c1 stands at 9.43% [at 2.29 µM] (inactive)

For reference, reported activity, negative = inhibition for c1ccc2c(Nc3ccncc3)nc(-c3ccoc3)nc2c1 stands at -11.6% [at 2.29 µM] (inactive)

For reference, reported activity, negative = inhibition for Cc1ccccc1-c1nc(N2CCNCC2)c2ccccc2n1 stands at 0.671% [at 2.29 µM] (inactive)

For reference, reported activity, negative = inhibition for O=C1C=C(N2CCN(c3ccccn3)CC2)C(=O)c2c(O)ccc(O)c21 stands at -10.2% [at 11.4 µM] (inactive)

For reference, reported activity, negative = inhibition for CC(C)C(=O)C(C)(C)CCc1ccccn1 stands at 13.3% [at 11.4 µM] (inactive)

For reference, reported activity, negative = inhibition for CN(C)Cc1ccccc1-c1nc(NCc2cccs2)c2ccccc2n1 stands at 5.46% [at 2.29 µM] (inactive)

For reference, reported activity, negative = inhibition for COc1ccccc1-c1nc(NCc2cccs2)c2ccccc2n1 stands at 7.82% [at 2.29 µM] (inactive)

For reference, reported activity, negative = inhibition for O=C(O)CC[C@]1(C(=O)O)CCC(=O)c2ccccc21 stands at -1.2% [at 11.4 µM] (inactive)

For reference, reported activity, negative = inhibition for CC(=O)NCCNc1nc(-c2ccc3c(c2)OCO3)nc2ccccc12 stands at 5.84% [at 2.29 µM] (inactive)

For reference, reported activity, negative = inhibition for CS(=O)(=O)Nc1cccc(-c2ccc3ncnc(N4CCOCC4)c3c2)c1 stands at -1.72% [at 2.29 µM] (inactive)

For reference, reported activity, negative = inhibition for FC(F)(F)c1ccccc1-c1nc(NCc2cccs2)c2ccccc2n1 stands at -25.9% [at 2.29 µM] (inactive)

For reference, reported activity, negative = inhibition for O=C(CCN1CCCCC1)N1CCc2c([nH]c3ccccc23)[C@H]1c1cccnc1 stands at 2.98% [at 11.4 µM] (inactive)

For reference, reported activity, negative = inhibition for COc1cc(CN2CCCCC2)cc2cc(C(=O)O)c(=O)oc12 stands at 15.6% [at 11.4 µM] (inactive)

For reference, reported activity, negative = inhibition for c1cn(-c2ncnc3ccc(-c4ccoc4)cc23)cn1 stands at -25.3% [at 2.29 µM] (inactive)

For reference, reported activity, negative = inhibition for N#Cc1ccccc1-c1ccc2ncnc(N3CCNCC3)c2c1 stands at 26.5% [at 2.29 µM] (inactive)
